system: Wnt5a (protein binding on small-molecule microarray); assay: Wnt5a binders on small-molecule microarray, primary screen, biophysical, 635/667 nm fluorescence (AID 1142); conditions: 635 nm fluorescence, higher = more signal;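 further: fluorescence read at 667 nm with signal to noise per printed feature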
MEASURED_ATTRIBUTE: composite z-score
Respond with the number and no other words.

query: Field request: composite z-score | item: `CCOC(=O)C[C@H]1[C@H](OC(=O)c2ccc(C(=O)c3ccccc3)cc2)[C@@H](NC(=O)c2ccccc2)c2cc(OCCCO)ccc2N1C(=O)c1ccc2ccccc2n1`
result: 0.152

query: Field request: composite z-score | item: `O=C1C[C@@](C(=O)NCCN2CCOCC2)(c2ccc([N+](=O)[O-])cc2)[C@@H](c2ccc(CO)cc2)N1CC12CC3CC(CC(C3)C1)C2`
result: 0.455

query: Field request: composite z-score | item: `CN(C)CCCCCCNC(=O)[C@@H]1C[C@@H]2C(=O)N[C@@H](Cc3ccccc3)C(=O)N2[C@@H]1c1ccc(O)cc1`
result: 0.484

query: Field request: composite z-score | item: `O=C1C[C@@](C(=O)NC2CC2)(c2ccc([N+](=O)[O-])cc2)[C@@H](c2ccc(CO)cc2I)N1C1CCCCC1`
result: 0.693

query: Field request: composite z-score | item: `C=C(CCCC)/C(=C/C[C@H](OC(=O)c1ccncc1)c1ccccc1OCCO)c1cnc2ccccc2c1`
result: 0.265

query: Field request: composite z-score | item: `Cc1ccc(S[C@]2(C(=O)NCCCN(C)C)CC(=O)N(Cc3cc(C(F)(F)F)cc(C(F)(F)F)c3)[C@@H]2c2ccc(CO)cc2)cc1`
result: -0.202

query: Field request: composite z-score | item: `CC(C)C(=C=CC[C@@H](O)c1ccc(OCCO)cc1)C[C@@H](O)COCc1ccccc1`
result: 0.13

query: Field request: composite z-score | item: `C=CCNC(=O)[C@@H]1[C@H]2C(=O)O[C@H](c3ccccc3)[C@H](c3ccccc3)N2[C@H](c2ccccc2OCCO)[C@@]12C(=O)N(C(=O)OCCOC)c1ccccc12`
result: 0.562

query: Field request: composite z-score | item: `COc1ccc([Si](C)(C)[C@H]2[C@H](CCO)O[C@@]3(C(=O)N(Cc4ccc(N(C=O)c5ccccc5)cc4)c4ccccc43)[C@@H]2C)cc1`
result: -0.308

query: Field request: composite z-score | item: `COC(=O)C(CC#Cc1ccc2c(c1)[C@]1(C(=O)N2)[C@H](C(=O)Nc2nc3ccccc3s2)[C@H]2C(=O)O[C@H](c3ccccc3)[C@H](c3ccccc3)N2[C@@H]1c1ccc(O)cc1)C(=O)OC`
result: 0.533

query: Field request: composite z-score | item: `COCCOC(=O)N1C(=O)[C@@]2(c3cc(C#CCCO)ccc31)[C@H](C(N)=O)[C@H]1C(=O)O[C@H](c3ccccc3)[C@H](c3ccccc3)N1[C@@H]2c1ccc(O)cc1`
result: 0.186

query: Field request: composite z-score | item: O=C(OCc1ccccc1)C1=CCC2c3[nH]c4ccccc4c3C(=O)C1N2S(=O)(=O)c1ccccc1[N+](=O)[O-] (stereo not drawn)
result: 0.794

query: Field request: composite z-score | item: `O=C(CS)NCCCCCCNC(=O)[C@@H]1C[C@@H]2C(=O)NCC(=O)N2[C@@H]1c1cccc(OCCO)c1`
result: 0.136

---

target: Fibroblast growth factor 2 (Homo sapiens) (UniProt P09038); experiment: FGF2 binders on small-molecule microarrays, primary screen, biochemical, small-molecule microarray, 635/667 nm fluorescence (AID 1133); settings: small-molecule microarray binding, FGF2, fluorescence 635/667; higher = more signal
Sequence (P09038 whole entry, looked up): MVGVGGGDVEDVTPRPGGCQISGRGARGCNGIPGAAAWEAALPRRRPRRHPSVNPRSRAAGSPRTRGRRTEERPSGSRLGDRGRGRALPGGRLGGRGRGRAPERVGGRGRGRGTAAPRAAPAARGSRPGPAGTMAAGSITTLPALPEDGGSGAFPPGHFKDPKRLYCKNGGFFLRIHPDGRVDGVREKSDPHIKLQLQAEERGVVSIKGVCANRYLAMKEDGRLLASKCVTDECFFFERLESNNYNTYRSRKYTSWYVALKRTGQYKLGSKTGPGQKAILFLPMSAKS
Classification scheme (composite z-score): lo = under 0.04, med = from 0.04 up to 0.6, hi = 0.6 and over

query: Bin this entry: `C=CCOC(=O)[C@H]1[C@@H]2C(=O)O[C@@H](c3ccccc3)[C@@H](c3ccccc3)N2[C@@H](c2ccc(OCCOC(=O)[C@@H]3C[C@@H]4C(=O)N[C@@H](CC(C)C)C(=O)N4[C@@H]3c3ccc(O)cc3)cc2)[C@]12C(=O)Nc1ccccc12`
result: hi

query: Bin this entry: `CCCC=C(CCC)[C@@H](NC(=O)c1cccs1)c1ccc(C(F)(F)F)cc1`
result: lo

query: Bin this entry: `CN(C)CCCCCCNC(=O)[C@@H]1C[C@@H]2C(=O)N[C@@H](Cc3ccccc3)C(=O)N2[C@@H]1c1ccc(O)cc1`
result: hi

query: Bin this entry: CN1C(=O)C2C=CC(C(O)c3ccccc3)N(N(c3ccccc3)c3ccccc3)C2C1=O (stereo not given)
result: lo

query: Bin this entry: [N-]=[N+]=NCc1ccccc1[C@@H]1OC(c2ccc(OCCCO)cc2)=N[C@]1(Cc1ccccc1)C(=O)NCC(O)CO (stereo not given in full)
result: hi

query: Bin this entry: `COC(=O)[C@@]1(CCC(=O)OC(C)(C)C)N=C(c2ccc(OCCCO)cc2)O[C@H]1c1ccccc1N=[N+]=[N-]`
result: med

query: Bin this entry: `COC(=O)[C@@]1(CCS(=O)(=O)c2ccccc2)N=C(c2ccc(OCCCO)cc2)O[C@H]1c1ccccc1CN=[N+]=[N-]`
result: med

query: Bin this entry: `CC(C)=CCN[C@H](CO)c1ccccc1`
result: med

query: Bin this entry: `COc1ccc(C(=O)Nc2ccc(CN3C(=O)[C@]4(O[C@H](CCO)[C@@H]([Si](C)(C)c5ccc(OC)cc5)[C@@H]4C)c4ccccc43)cc2)cc1`
result: hi

query: Bin this entry: CCCCCN1CC=CC23O[C@@H]4C=CCCOC(=O)C4[C@H]2C(=O)N(CCCCCO)[C@@H]3C1=O (stereo not given in full)
result: lo

query: Bin this entry: CC(CO)N1C(=O)[C@@H]2C3C(=O)OCCC/C=C\[C@H]3OC23C=CCN(C(C)(C)C)C(=O)[C@@H]13 (stereo not given in full)
result: lo

query: Bin this entry: `[N-]=[N+]=Nc1ccccc1[C@@H]1OC(c2ccc(OCCCO)cc2)=N[C@]1(CCS(=O)(=O)c1ccccc1)C(N)=O`
result: med

query: Bin this entry: `CO[C@H]1O[C@H](CO)[C@@H](OC(=O)Nc2ccccc2)[C@H](OC(=O)Nc2ccccc2)[C@@H]1OC(=O)Nc1ccccc1`
result: med

query: Bin this entry: O=C(OCc1ccccc1)C1=CCC2c3[nH]c4ccccc4c3C(=O)C1N2S(=O)(=O)c1ccccc1[N+](=O)[O-] (stereo not given)
result: med

query: Bin this entry: `COCC(=C=CC[C@@H](O)c1cccc(OCCO)c1)C[C@@H](O)c1ccccn1`
result: med

---

target: Torsin-1A-interacting protein 2 (Homo sapiens); experiment: LULL1 binders on small-molecule microarray, primary screen, cell lysate, human LULL1 lysate, 635/667 nm fluorescence (AID 1092); settings: hLULL1 lysate binding, 635 nm fluorescence, higher = more signal;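 further: probe is lysate of COS7 cells overexpressing human LULL1; score merges per-feature 667 nm fluorescence with signal-to-noise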
Lab note: compare composite z-score against 1. Equal or greater, write y. Smaller, write n.

query: Kindly determine if composite z-score recorded for `COCC(=C=CC[C@@H](O)c1cccc(OCCO)c1)C[C@@H](O)c1ccccn1` is above or exactly 1.
result: y

query: Kindly determine if composite z-score recorded for `O=C1O[C@@H](c2ccccc2)[C@@H](c2ccccc2)N2[C@@H](c3ccccc3OCCO)[C@]3(C(=O)Nc4ccccc43)[C@@H](C(=O)Nc3nc4ccccc4s3)[C@H]12` is above or exactly 1.
result: y

query: Kindly determine if composite z-score recorded for CC1(C)[C@@H]2CC(C(O)C3C=CC4C(=O)N(c5ccccc5)C(=O)C4N3Nc3ccc([N+](=O)[O-])cc3)=C[C@H]1C2 (stereo partly specified) is above or exactly 1.
result: y

query: Kindly determine if composite z-score recorded for `COC(=O)[C@@]1(Cc2ccc(OC)cc2)[C@H]2c3cc(C(=O)N(C)C)n(C)c3C[C@H]2CN1C(=O)c1ccccc1` is above or exactly 1.
result: y

query: Kindly determine if composite z-score recorded for `COC(=O)[C@H](Cc1ccccc1)N[C@@H](/C=C/C1CC1)[C@H](O)Cc1ccccc1` is above or exactly 1.
result: n

query: Kindly determine if composite z-score recorded for `COCCCNC(=O)[C@@]1(C)c2ccccc2C(=O)N(C(C)C)[C@H]1c1ccc(CO)cc1` is above or exactly 1.
result: y

query: Kindly determine if composite z-score recorded for `Cc1nc2cc(Br)ccc2c(=O)o1` is above or exactly 1.
result: y

query: Kindly determine if composite z-score recorded for `CN(C)C(=O)[C@@]1(CCS(=O)(=O)c2ccccc2)COC(c2ccc(OCCCO)cc2)=N1` is above or exactly 1.
result: y

query: Kindly determine if composite z-score recorded for C=CCC(OC(C)=O)[C@@H]1[C@@H](N(Cc2ccc(-c3ccccc3)cc2)C(=O)c2ccc(-c3ccccc3)cc2)c2cc(OCCCO)ccc2N1C(=O)Cc1ccc2ccccc2c1 (stereo partly specified) is above or exactly 1.
result: n

query: Kindly determine if composite z-score recorded for `COc1ccccc1CN1C(=O)c2ccccc2[C@@H](C(=O)NC2CC2)[C@@H]1c1ccc(CO)cc1` is above or exactly 1.
result: y

query: Kindly determine if composite z-score recorded for `C=CC[C@@]1(C(=O)NCCN2CCOCC2)N=C(c2ccc(OCCCO)cc2)O[C@@H]1c1ccccc1N=[N+]=[N-]` is above or exactly 1.
result: y
